Each entry below carries its reported T/C.
Tested on: BDF1 mice, P388 leukemia ip, median survival T/C
assay name: NCI In Vivo Anticancer Drug Screen. Data for tumor model P388 Leukemia (intraperitoneal) in B6D2F1 (BDF1) mice
condition summary: endpoint: median survival time; dose: 3.12 mg/kg/injection; schedule: Q01DX009 (ip); vehicle: saline; higher = longer survival
Toxic doses and inconclusive results are not listed.

molecule	T/C
NC(N)=Nc1ccc(C(=O)Oc2c(Cl)cc([N+](=O)[O-])cc2Cl)cc1	86 % of control
O=P1(NCCCl)OCCCN1CCCl (stereo not given)	99 % of control
C1CCC2[N-]CC3CCCCC3[N-]CC3CCCCC3[N-]CC3CCCCC3[N-]CC2C1.[Cu] (stereo not given)	166 % of control
CC(=O)OCc1c(O)c2c(c(O)c1COC(C)=O)C(=O)C=CC2=O	96 % of control
N#Cc1ccc(NC(=O)N(CCCl)N=O)cc1	194 % of control
